# Assayed system: Bcl-2 protein (Recombinant Human Bcl-2 Protein) (Homo sapiens)
# Construct: purchased Novus NBP2-34889
# Method: Binding evaluation of mixture library compounds to Bcl-2 using AS-MS (affinity selection mass spectrometry)
# Condition info: n = 2

Compound: CCOc1cncc(-c2csc(C(=O)N3CCN(c4ccc(C(=O)NS(=O)(=O)CCC(F)(F)F)cc4)CC3)c2)c1 [B2N024-01]
Readout units: %
ASMS ratio (%): 0.0
--
Compound: CCOc1cccc(C#Cc2cc(C(=O)N3CCN(c4ccc(C(=O)NS(=O)(=O)c5ccc(NCCSc6ccccc6)c(C(F)(F)F)c5)cc4)CC3)cc(C(F)(F)F)c2)c1 [B2R041-01]
Readout units: %
ASMS ratio (%): 0.0
--
Compound: CCOc1cccc(-c2ccc(CN3CCN(c4ccc(C(=O)NS(C)(=O)=O)nn4)CC3)c(OC)c2)c1 [B2I079-01]
Readout units: %
ASMS ratio (%): 0.0
--
Compound: CCOc1cccc(-c2cc(OC)c(CN3CCN(c4ccc(C(=O)NS(C)(=O)=O)nn4)CC3)c(OC)c2)c1 [B2I085-01]
Readout units: %
ASMS ratio (%): 0.0
--
Compound: CCOc1cncc(-c2ccc(CN3CCN(c4ccc(C(=O)NS(=O)(=O)CCC(F)(F)F)nn4)CC3)cc2F)c1 [B2N078-01]
Readout units: %
ASMS ratio (%): 0.0
--
Compound: CCOc1cncc(-c2ccc(CN3CCN(c4ccc(C(=O)NS(=O)(=O)C(C)(C)C)cc4)CC3)cc2F)c1 [B2L052-01]
Readout units: %
ASMS ratio (%): 1.0
--
Compound: CCOc1cncc(-c2ccc(CN3CCN(c4ccc(C(=O)NS(=O)(=O)CCC(F)(F)F)cc4)CC3)cc2C)c1 [B2N048-01]
Readout units: %
ASMS ratio (%): −0.7

###

# Assayed system: Bcl-2 protein (Recombinant Human Bcl-2 Protein) (Homo sapiens, UniProt P10415)
# Construct: purchased Novus NBP2-34889
# Sequence (P10415 whole entry): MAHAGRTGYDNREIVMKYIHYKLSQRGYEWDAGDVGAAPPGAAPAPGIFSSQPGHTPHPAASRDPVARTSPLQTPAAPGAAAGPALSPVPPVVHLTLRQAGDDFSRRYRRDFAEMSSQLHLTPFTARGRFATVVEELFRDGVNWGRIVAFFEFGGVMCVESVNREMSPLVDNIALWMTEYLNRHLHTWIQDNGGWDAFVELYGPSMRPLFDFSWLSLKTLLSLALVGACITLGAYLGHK
# Method: Binding evaluation of mixture library compounds to Bcl-2 using AS-MS (affinity selection mass spectrometry)
# Condition info: n = 1

Mol: CCOc1cncc(-c2ccccc2CCC(=O)N2CCN(c3ccc(C(=O)NS(=O)(=O)CCC(F)(F)F)cc3)CC2)c1
ASMS ratio (%): −0.2
//
Mol: CCOc1cccc(-c2csc(CN3CCN(c4ccc(C(=O)NS(=O)(=O)c5ccc(NCCSc6ccccc6)c(C(F)(F)F)c5)nn4)CC3)c2)c1
ASMS ratio (%): 56.5
//
Mol: CCOc1cccc(-c2ccc(CN3CCN(c4ccc(C(=O)NS(=O)(=O)c5ccc(NCCSc6ccccc6)c(C(F)(F)F)c5)cc4)CC3)c3ccccc23)c1
ASMS ratio (%): 3.8
//
Mol: CCOc1cccc(-c2ccccc2CN2CCN(c3ccc(C(=O)NS(=O)(=O)CCC(F)(F)F)cc3)CC2)c1
ASMS ratio (%): 0.0

###

Items are presented alongside their recorded ASMS ratio (%) n = 1.
# Assayed system: Bcl-2 protein (Recombinant Human Bcl-2 Protein) (Homo sapiens, UniProt P10415)
# Construct: purchased Novus NBP2-34889
# Method: Binding evaluation of mixture library compounds to Bcl-2 using AS-MS (affinity selection mass spectrometry)
# Condition info: AS-MS on the mixture of 1200 library compounds; ASMS Ratio(%)=(A−C)/B×100; replicate n = 1

Compound: CCOc1cncc(-c2ccc(C(C)N3CCN(c4ccc(C(=O)Nc5ccc(OC)cc5)cc4)CC3)cc2)c1 (stereo not shown) [B1O098-01]
ASMS ratio (%) n = 1: −42.7

Compound: CCOc1cccc(-c2ccc(CN3CCN(c4ccc(C(=O)N(CC)CC)cc4)CC3)cc2C)c1 [B4J047-01]
ASMS ratio (%) n = 1: −6.6

Compound: CCOc1cncc(-c2csc(C(=O)N3CCN(c4ccc(C(=O)N(CC)CC)nn4)CC3)c2)c1 [B4J002-01]
ASMS ratio (%) n = 1: −2.7

Compound: CCOc1cncc(-c2cc(C(=O)N3CCN(c4ccc(C(=O)N(CC)CC)cc4)CC3)cc(C(C)(C)C)c2)c1 [B4J038-01]
ASMS ratio (%) n = 1: 0.8

###

Examples of compounds with documented ASMS ratio (%) n = 2 follow.
# Assayed system: Bcl-2 protein (Recombinant Human Bcl-2 Protein) (Homo sapiens)
# Construct: purchased Novus NBP2-34889
# Method: Binding evaluation of mixture library compounds to Bcl-2 using AS-MS (affinity selection mass spectrometry)
# Condition info: AS-MS, mixture of 1200 compounds, Bcl-2; ASMS Ratio(%)=(A−C)/B×100; replicate n = 2

Mol: CCOc1cccc(-c2ccc(CN3CCN(c4ccc(C(=O)NCC(F)(F)F)cc4)CC3)cc2C)c1
Assayed system: Bcl-2 protein (Recombinant Human Bcl-2 Protein) (Homo sapiens)
Readout units: %
ASMS ratio (%) n = 2: 0.5
//
Mol: CCOc1cncc(-c2ccc(CN3CCN(c4ccc(C(=O)NCC(F)(F)F)nn4)CC3)c(CC)c2)c1
Assayed system: Bcl-2 protein (Recombinant Human Bcl-2 Protein) (Homo sapiens)
Readout units: %
ASMS ratio (%) n = 2: 0.0
//
Mol: CCOc1cncc(C#Cc2cc(C(=O)N3CCN(c4ccc(C(=O)NCC56CC7CC(CC(C7)C5)C6)nn4)CC3)cc(C(F)(F)F)c2)c1
Assayed system: Bcl-2 protein (Recombinant Human Bcl-2 Protein) (Homo sapiens)
Readout units: %
ASMS ratio (%) n = 2: −10.5
//
Mol: CCOc1cccc(-c2ccc(C(=O)N3CCN(c4ccc(C(=O)NCC56CC7CC(CC(C7)C5)C6)cc4)CC3)cc2C)c1
Assayed system: Bcl-2 protein (Recombinant Human Bcl-2 Protein) (Homo sapiens)
Readout units: %
ASMS ratio (%) n = 2: −16.1
//
Mol: CCOc1cncc(-c2ccc(CN3CCN(c4ccc(C(=O)NCC(F)(F)F)cc4)CC3)c(OC)c2)c1
Assayed system: Bcl-2 protein (Recombinant Human Bcl-2 Protein) (Homo sapiens)
Readout units: %
ASMS ratio (%) n = 2: 0.0
//
Mol: CCOc1cccc(-c2ccc(CN3CCN(c4ccc(C(=O)NCC(F)(F)F)nn4)CC3)cc2C)c1
Assayed system: Bcl-2 protein (Recombinant Human Bcl-2 Protein) (Homo sapiens)
Readout units: %
ASMS ratio (%) n = 2: −1.9
//
Mol: CCOc1cccc(-c2cc(C(=O)N3CCN(c4ccc(C(=O)NCC(F)(F)F)nn4)CC3)cc(C(F)(F)F)c2)c1
Assayed system: Bcl-2 protein (Recombinant Human Bcl-2 Protein) (Homo sapiens)
Readout units: %
ASMS ratio (%) n = 2: 0.0

###

Listed here: items and their measured ASMS ratio (%) n = 2.
# Assayed system: Bcl-2 protein (Recombinant Human Bcl-2 Protein) (Homo sapiens, UniProt P10415)
# Construct: purchased Novus NBP2-34889
# Method: Binding evaluation of mixture library compounds to Bcl-2 using AS-MS (affinity selection mass spectrometry)
# Condition info: AS-MS, mixture library, Bcl-2; replicate n = 2; ASMS Ratio(%)=(A−C)/B×100

Mol: CCOc1cccc(-c2csc(C(=O)N3CCN(c4ccc(C(=O)NS(=O)(=O)c5ccc(NCCSc6ccccc6)c([N+](=O)[O-])c5)nn4)CC3)c2)c1
Assayed system: Bcl-2 protein (Recombinant Human Bcl-2 Protein) (Homo sapiens, UniProt P10415)
ASMS ratio (%) n = 2: 0.0%
--
Mol: CCOc1cccc(-c2cnn(-c3cc(C(=O)N4CCN(c5ccc(C(=O)NS(=O)(=O)c6ccc(NCCSc7ccccc7)c([N+](=O)[O-])c6)nn5)CC4)cc(C(F)(F)F)c3)c2)c1
Assayed system: Bcl-2 protein (Recombinant Human Bcl-2 Protein) (Homo sapiens, UniProt P10415)
ASMS ratio (%) n = 2: 0.0%
--
Mol: CCOc1cncc(-c2cc(CN3CCN(c4ccc(C(=O)NS(=O)(=O)CC56CC7CC(CC(C7)C5)C6)cc4)CC3)cc(OC(F)(F)F)c2)c1
Assayed system: Bcl-2 protein (Recombinant Human Bcl-2 Protein) (Homo sapiens, UniProt P10415)
ASMS ratio (%) n = 2: −0.3%
--
Mol: CCOc1cncc(-c2ccc(C(=O)N3CCN(c4ccc(C(=O)NS(=O)(=O)CC56CC7CC(CC(C7)C5)C6)cc4)CC3)cc2F)c1
Assayed system: Bcl-2 protein (Recombinant Human Bcl-2 Protein) (Homo sapiens, UniProt P10415)
ASMS ratio (%) n = 2: 1.2%
--
Mol: CCOc1cccc(-c2ccccc2CCC(=O)N2CCN(c3ccc(C(=O)NS(=O)(=O)CC45CC6CC(CC(C6)C4)C5)cc3)CC2)c1
Assayed system: Bcl-2 protein (Recombinant Human Bcl-2 Protein) (Homo sapiens, UniProt P10415)
ASMS ratio (%) n = 2: −4.5%
--
Mol: CCOc1cncc(-c2csc(C(=O)N3CCN(c4ccc(C(=O)NS(=O)(=O)c5ccc(NCCSc6ccccc6)c([N+](=O)[O-])c5)cc4)CC3)c2)c1
Assayed system: Bcl-2 protein (Recombinant Human Bcl-2 Protein) (Homo sapiens, UniProt P10415)
ASMS ratio (%) n = 2: 7.5%
--
Mol: CCOc1cncc(-c2cc(C(=O)N3CCN(c4ccc(C(=O)NS(C)(=O)=O)nn4)CC3)cc(C(F)(F)F)c2)c1
Assayed system: Bcl-2 protein (Recombinant Human Bcl-2 Protein) (Homo sapiens, UniProt P10415)
ASMS ratio (%) n = 2: 0.0%
--
Mol: CCOc1cncc(-c2cc(CN3CCN(c4ccc(C(=O)N(CC)CC)nn4)CC3)cc(OC(F)(F)F)c2)c1
Assayed system: Bcl-2 protein (Recombinant Human Bcl-2 Protein) (Homo sapiens, UniProt P10415)
ASMS ratio (%) n = 2: −1.5%
--
Mol: CCOc1cncc(-c2cc(CN3CCN(c4ccc(C(=O)NS(=O)(=O)CC56CC7CC(CC(C7)C5)C6)cc4)CC3)cc(OC(C)C)c2)c1
Assayed system: Bcl-2 protein (Recombinant Human Bcl-2 Protein) (Homo sapiens, UniProt P10415)
ASMS ratio (%) n = 2: −10.6%
--
Mol: CCOc1cccc(-c2ccccc2CN2CCN(c3ccc(C(=O)NS(=O)(=O)c4ccc(NCCSc5ccccc5)c([N+](=O)[O-])c4)nn3)CC2)c1
Assayed system: Bcl-2 protein (Recombinant Human Bcl-2 Protein) (Homo sapiens, UniProt P10415)
ASMS ratio (%) n = 2: 11.2%
--
Mol: CCOc1cncc(-c2cc(CN3CCN(c4ccc(C(=O)NS(=O)(=O)c5ccc(NCCSc6ccccc6)c([N+](=O)[O-])c5)cc4)CC3)cc(OC(F)(F)F)c2)c1
Assayed system: Bcl-2 protein (Recombinant Human Bcl-2 Protein) (Homo sapiens, UniProt P10415)
ASMS ratio (%) n = 2: −1.6%
--
Mol: CCOc1cccc(-c2ccc(C(=O)N3CCN(c4ccc(C(=O)NS(=O)(=O)c5ccc(NCCSc6ccccc6)c([N+](=O)[O-])c5)cc4)CC3)cc2C)c1
Assayed system: Bcl-2 protein (Recombinant Human Bcl-2 Protein) (Homo sapiens, UniProt P10415)
ASMS ratio (%) n = 2: 0.0%

These measurements were taken from patent US20240132431A1.
